Entry source: patent US20240083853A1

Could you please report measured pIC50 for the items listed next?
Target: Recombinant human HSD17B13 enzyme (Homo sapiens, UniProt Q7Z5P4)
Sequence (Q7Z5P4 20-300): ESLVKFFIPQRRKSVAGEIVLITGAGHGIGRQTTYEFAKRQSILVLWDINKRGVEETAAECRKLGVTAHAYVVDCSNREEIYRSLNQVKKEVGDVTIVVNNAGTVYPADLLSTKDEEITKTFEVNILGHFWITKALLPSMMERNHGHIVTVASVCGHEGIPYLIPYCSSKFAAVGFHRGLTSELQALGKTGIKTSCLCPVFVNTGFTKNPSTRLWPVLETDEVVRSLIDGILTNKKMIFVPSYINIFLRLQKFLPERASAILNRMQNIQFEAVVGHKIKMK
Test: HSD17b13 NAD(P)H-Glo biochemical assay
Conditions: 50 uM estradiol, 1 mM NAD+, NAD(P)H-Glo luminescence; read-out: HSD17β13 IC50
pIC50: −log10 of the molar value. Where a name gives a salt, the structure may show the parent alone.

Query string: Look up pIC50 of CCn1c(=O)n(-c2ccc(N3CCC(C)(C)CC3)cc2)c2c(F)c(O)c(F)cc21 and report it.
Result string: 6.00 to 7.00

Query string: Look up and state reported pIC50 for NC(=O)c1ccc(-c2ccc(-n3ncc4cc(F)c(O)cc43)cc2)cc1
Result string: 6.00 to 7.00

Query string: Could you please provide reported pIC50 for Oc1c(F)cc2cnn(-c3ccc(N4CCC(O)CC4)cc3)c2c1F ? Thanks!
Result string: 6.00 to 7.00

Query string: Identify measured pIC50 corresponding to CC1(C)CCN(c2ccc(N3C(=O)C(=O)c4cc(F)c(O)c(F)c43)cc2)CC1
Result string: 6.00 to 7.00

Query string: Give reported pIC50 value for CC1(C)CCCN(c2ccc(-n3ncc4cc(F)c(O)c(F)c43)cc2)C1
Result string: > 7.00

Query string: Supply recorded pIC50 for Cn1c(=O)n(-c2ccc(N3CCC(C)(C)CC3)cc2)c2c(F)c(O)c(F)cc21 here.
Result string: > 7.00

Query string: Specify pIC50 for CCN1CCC(c2ccc(-n3ncc4cc(F)c(O)c(F)c43)cc2)CC1 [Compound 29, TFA salt] and stop.
Result string: > 7.00

Query string: Give pIC50 for the following compound: CC1(C)CCN(c2ccc(-n3nnc4c(F)c(F)c(O)cc43)cc2)CC1
Result string: 6.00 to 7.00

Query string: Give the reported value of pIC50 for this record: Oc1c(F)cc2cnn(-c3ccc(-c4ccc(Cl)cc4)nc3)c2c1F
Result string: > 7.00

Query string: Provide pIC50 value for the following compound: Oc1c(F)cc2cnn(-c3ccc(-c4cc[nH]n4)cc3)c2c1F
Result string: 6.00 to 7.00
